src = PubChem BioAssay (NCI)

Test system: SF-268 CNS
Assay: NCI tumour cell line growth inhibition, 48 h
parameter measured: GI50

compound	parameter measured	data value
c1ccc(N2N=C(c3cccc(Nc4ccncc4)c3)CC2c2ccc3c(c2)OCO3)cc1 (stereo not given)	GI50	1.79 µM
Cc1cc(=O)[nH]c(N/N=C/c2cc(Br)ccc2O)n1	GI50	0.728 µM
COC1C(CO)OC(n2c3ccccc3c3c4c(c5c6ccccc6[nH]c5c32)C(=O)NC4=O)C(O)C1O (stereo not given)	GI50	0.0189 µM
CCOC(=O)c1ccc(Nc2sc(C(=O)c3ccc(Br)cc3)c(N)c2C#N)cc1	GI50	2.56 µM
N.N.NCCCCCN.O=C([O-])CCl.O=C([O-])CCl.O=C([O-])CCl.O=C([O-])CCl.[Pt+4].[Pt+4]	GI50	2.13 µM

* * *

Tested on: MDA-MB-435
Assay: NCI tumour cell line growth inhibition, 48 h
The reader will find reported TGI values listed item by item below.

molecule	relation operator	TGI, µM
CCC(CC)c1nc(Nc2ccc(C(=O)OC)cc2)c2ccccc2n1	>	25.6
C=C1CC2CCCC12C=O (stereo not given)	>	10
CCN(CC)C(=O)Cn1c(-c2ccccc2)cc2ccccc21	>	100
COc1ccc(CC2C3=C(CCN2C(=O)C2CCC2)CC2(CC3)OCCO2)cc1O (stereo not given)	=	20
O=C(O)CSCc1cc2c(O)c(c1)Cc1cc(CSCC(=O)O)cc(c1O)Cc1cc(CSCC(=O)O)cc(c1O)Cc1cc(CSCC(=O)O)cc(c1O)C2	>	100
O=C1/C(=C\c2ccc(F)cc2)CN(C(=O)c2ccccc2)C/C1=C\c1ccc(F)cc1	=	5.65
CCOC(=O)c1ccccc1OC(=O)NNc1ccccc1	>	100
CO/C=C/C(=O)c1cc2cnc3c(=N)cc(NC(=O)C(C)C)c([nH]1)c23	=	0.836
O=C1c2cccnc2S(=O)(=O)N1c1ccc(Oc2ccccc2)cc1	>	100
COc1cccc(CCC2CCCN(c3cc(C)nc(N)n3)C2)c1 (stereo not given)	=	0.404

* * *

Test system: BT-549 breast
Assay: NCI tumour cell line growth inhibition, 48 h

compound	TGI
OCc1cc2c(ccc3sc4ccc5sc6ccc7ncccc7c6c5c4c32)s1	38.6 µM
Nc1nc2c(ncn2C2CCC(CO)O2)c(=O)n1C(=O)c1ccccc1 (stereo not given)	> 100 µM
Cn1c2ccccc2n2c3ncccc3c(=NCCCC(=O)O)c(C#N)c12	> 100 µM
COc1ccc2sc3cccc(NCCN(C)C)c3c(=O)c2c1	18.6 µM
CC(=O)C1C(=O)C(=O)N(c2ccccc2)C1=O (stereo not given)	> 100 µM
C=C(C)[C@@H]1CC[C@]2(COCCC#N)CC[C@]3(C)[C@H](CC[C@@H]4[C@@](C)(CCCNCCC#N)[C@H](C(=C)C)CC[C@]43C)[C@@H]12	> 50 µM
N#Cc1cnc(-n2[nH]c3c(c2=O)CCCC3)[nH]c1=O	> 100 µM
CC(=O)OCC(OC(C)=O)C(OC(C)=O)C(/C=N\Nc1nc2ccccc2c(=O)[nH]1)=N\Nc1nc2ccccc2c(=O)[nH]1 (stereo not given)	> 100 µM
O=c1cc(-c2ccccc2)oc2ccc(OC/C(=N/O)c3ccccc3)cc12	9.01 µM
C(/C=C/c1ccccc1)=Nc1ccc2c(c1)Cc1ccccc1-2	> 100 µM
